- subject of test: human PDE2A1 (Homo sapiens)
- Construct: GST; purchased BPS Bioscience (San Diego, Calif.) 60020; host or cells: insect cells
- Sequence (O00408 1-920 isoform O00408-2): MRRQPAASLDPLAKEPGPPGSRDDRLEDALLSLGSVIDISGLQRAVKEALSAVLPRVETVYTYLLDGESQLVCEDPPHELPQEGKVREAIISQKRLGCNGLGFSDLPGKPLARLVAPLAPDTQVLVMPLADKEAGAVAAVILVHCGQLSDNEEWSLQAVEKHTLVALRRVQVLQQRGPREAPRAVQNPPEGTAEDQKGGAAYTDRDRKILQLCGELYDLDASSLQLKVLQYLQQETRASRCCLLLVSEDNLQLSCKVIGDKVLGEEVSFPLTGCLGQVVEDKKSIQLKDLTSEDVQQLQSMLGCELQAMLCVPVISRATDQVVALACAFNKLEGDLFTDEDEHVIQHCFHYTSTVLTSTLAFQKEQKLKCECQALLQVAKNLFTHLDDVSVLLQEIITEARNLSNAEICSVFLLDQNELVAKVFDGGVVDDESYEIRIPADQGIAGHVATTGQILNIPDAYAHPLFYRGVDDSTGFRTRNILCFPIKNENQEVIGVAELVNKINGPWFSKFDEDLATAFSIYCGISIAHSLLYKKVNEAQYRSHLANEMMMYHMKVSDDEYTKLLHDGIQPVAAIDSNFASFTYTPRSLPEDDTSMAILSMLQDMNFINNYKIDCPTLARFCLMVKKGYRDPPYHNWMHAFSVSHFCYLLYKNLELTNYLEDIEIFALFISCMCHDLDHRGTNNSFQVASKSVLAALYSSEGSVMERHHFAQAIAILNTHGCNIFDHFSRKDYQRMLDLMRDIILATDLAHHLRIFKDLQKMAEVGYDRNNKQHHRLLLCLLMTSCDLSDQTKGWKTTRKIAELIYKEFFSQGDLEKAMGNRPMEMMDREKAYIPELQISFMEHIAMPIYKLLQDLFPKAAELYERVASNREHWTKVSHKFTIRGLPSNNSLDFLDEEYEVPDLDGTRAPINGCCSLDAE
- assay procedure: IMAP FP PDE assay, human PDE2A1
- Type: biochemical
- test settings: Lab B; read-out: Human PDE2 Ki (nM) Lab B
metric name: Ki (nM)
Quick reminder: number only, in nM, skip the unit.

For orientation, consider the following solved cases.
# compound, reading unit, Ki
rows = [
    ("Cc1nc2c(c(CO)nn2C(C)c2ccc(OC(F)(F)F)c(F)c2)c(=O)[nH]1 (single isomer, unassigned) [Example 11]", "nM", 1.9),
    ("Cc1nc2c(c(CO)nn2C(C)c2ccc(C3CC3)cc2)c(=O)[nH]1 (stereo not shown)", "nM", 3.7),
    ("Cc1nc2c(c(CC(F)F)nn2C(C)c2ccc(C(F)(F)F)cc2)c(=O)[nH]1 (single isomer, unassigned) [Example 286]", "nM", 2),
]

Notebook: pull reported Ki for human PDE2A1 (Homo sapiens), entry Cc1nc2c(c(CO)nn2C(C)c2cnn(CC(F)(F)F)c2)c(=O)[nH]1 (single isomer, unassigned) [Example 150] 158

Field: Ki (human PDE2A1 (Homo sapiens)). Entry: Cc1nc2c(c(CO)nn2C(C)c2ccc(OC(F)F)c(F)c2)c(=O)[nH]1 (single isomer, unassigned) [Example 112] 88

Form field - read-out: Ki; system: human PDE2A1 (Homo sapiens); submitted item: Cc1nc2c(c(CO)nn2C(C)c2ccc3c(c2)OC(F)(F)O3)c(=O)[nH]1 (single isomer, unassigned) [Example 114] 1210

State its Ki on human PDE2A1 (Homo sapiens): Cc1nc2c(c(CO)nn2C(c2ccc(C(F)(F)F)cc2)C(C)C)c(=O)[nH]1 (stereo not shown) 0.74

Just for reference, patent US10160762B2 is where these values come from.
